Sourced from ChEMBL document CHEMBL6078677

assay-details: Cytotoxicity against human Caco-2 cells assessed as reduction in cell viability incubated for 48 hrs by CCK8 assay
Type: toxicity, cell-based
measured-quantity: CC50 at 48 h (µg/mL)
# value in µg/mL; strip the unit string

Req: Reported CC50 at 48 h for CC1C/C(=C\c2ccc(-c3ccc(Cl)c(C(F)(F)F)c3)s2)c2nc3ccccc3c(C(=O)O)c2C1 (racemic) : what is it?
Resp: 21.9

###

assay-details: Metabolic stability in rat liver microsomes assessed as half-life at 100 uM preincubated for 5 mins followed by NADPH addition and measured upto 60 mins by LC-MS/MS analysis
Type: ADME, Microsome
measurement-context: time < 65 min
measured-quantity: half-life at 100 µM

Req: Value lookup for half-life at 100 µM; key = CC1C/C(=C\c2ccc(-c3ccc(Cl)c(C(F)(F)F)c3)s2)c2nc3ccccc3c(C(=O)O)c2C1 (racemic)
Resp: > 3.08 h

###

assay-details: Cytotoxicity against human HEp-2 cells assessed as cell viability at 16 times of MIC incubated for 48 hrs by CCK8 assay (reference value: 100 %)
Type: toxicity, cell-based
measurement-context: read-out: Activity
Below is a list of entries, each paired with its recorded viability at 48 h, 16 times of MIC value.
Return type: number; implicit unit %.

[[record]]
molecule = "CCCCCCc1ccc(-c2ccc(/C=C3\\CC(C)Cc4c3nc3ccc(OC)cc3c4C(=O)O)cn2)cc1 (racemic)"
measured_quantity = "viability at 48 h, 16 times of MIC"
readout_units = "%"
value = 1.91

[[record]]
molecule = "CC1C/C(=C\\c2ccc(-c3ccc(Cl)c(C(F)(F)F)c3)s2)c2nc3ccccc3c(C(=O)O)c2C1 (racemic)"
measured_quantity = "viability at 48 h, 16 times of MIC"
readout_units = "%"
value = 44.5


Here is the next item to consider.
Req: Reported viability at 48 h, 16 times of MIC for COc1ccc2nc3c(c(C(=O)O)c2c1)CC(C)C/C3=C\c1cccc(-c2ccc(Cl)c(C(F)(F)F)c2)c1 (racemic) : what is it?
Resp: 2.42

###

assay-details: Metabolic stability in rat liver microsomes assessed as intrinsic clearance at 100 uM preincubated for 5 mins followed by NADPH addition and measured upto 60 mins by LC-MS/MS analysis
Assay type: ADME, Microsome
measurement-context: time < 65 min, read-out: CLH
measured-quantity: microsomal CLint at 100 µM

Req: What value of microsomal CLint at 100 µM has been reported for the following molecule? CC1C/C(=C\c2ccc(-c3ccc(Cl)c(C(F)(F)F)c3)s2)c2nc3ccccc3c(C(=O)O)c2C1 (racemic)
Resp: < 7.5 µL/min/mg

###

assay-details: Hemolytic activity in Kunming mouse erythrocytes assessed as hemolysis at 8 times of MIC measured after 1 hrs by absorbance based assay relative to control
Format: toxicity, cell-based, Erythrocyte
measurement-context: read-out: Activity
measured-quantity: hemolysis at 1 h, 8 times of MIC (%)
Entry rule: numbers only, all in %.

Worked set:
[[record]]
compound = "COc1ccc2nc3c(c(C(=O)O)c2c1)CC(C)C/C3=C\\c1cccc(-c2ccc(Cl)c(C(F)(F)F)c2)c1 (racemic)"
readout_units = "%"
value = 22.3

[[record]]
compound = "CCCCCCc1ccc(-c2ccc(/C=C3\\CC(C)Cc4c3nc3ccc(OC)cc3c4C(=O)O)cn2)cc1 (racemic)"
readout_units = "%"
value = 55.8


Now turn to the next compound.
Req: // returns reported hemolysis at 1 h, 8 times of MIC for input CC1C/C(=C\c2ccc(-c3ccc(Cl)c(C(F)(F)F)c3)s2)c2nc3ccccc3c(C(=O)O)c2C1 (racemic)
Resp: 5.4
